Assign pIC50 to each entry below.
TARGET: biotinylated human IL-17 (binding to IL17R/Fc) (Homo sapiens)
Construct: 177-IR (IL17R/Fc)
Sequence (Q16552 20-155 limits assumed): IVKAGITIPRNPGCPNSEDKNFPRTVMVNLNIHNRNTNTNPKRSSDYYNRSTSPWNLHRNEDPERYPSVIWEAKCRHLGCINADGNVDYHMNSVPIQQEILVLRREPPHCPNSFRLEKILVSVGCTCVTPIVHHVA
EXPERIMENT DESCRIPTION: IL-17 competition ELISA II (captured IL17R/Fc, biotinylated IL-17)
Protocol: In this version, a high binding 96-well plate (Costar #9018) was coated with 20 nM of goat anti-human IgG (KPL 01-10-02) in PBS, 100 μL/well, for 30 min at 37° C. followed by 5 min at 4° C. […] Data was processed using BioAssay Enterprise v10.1.4 (CambridgeSoft) software. […] IC50 was calculated using positive ‘no competitor’ control data as an upper limit and blank control as a lower limit in each assay.
pIC50: −log10 of the molar value.

Study these solved cases before continuing.
Could you share which pIC50 value was measured for COC(=O)N[C@@H](Cc1ccccc1Cl)C(=O)Nc1ccc(C[C@H]2NC(=O)CC3(CCCC3)CC(=O)N(C)CCOCCN(C)C(=O)[C@@H](C)NC2=O)cc1 ? > 7.00

Which pIC50 is listed for CN(C)c1ccc(CC(=O)N[C@H](C(=O)Nc2ccc(C[C@H]3NC(=O)CC4(CCCC4)CC(=O)NCCOCCOCCNC3=O)cc2)C2CCCCC2)cc1 ? > 7.00

Data request, read-out pIC50, for CN1CCOCCOCCN(C)C(=O)[C@@H](Cc2ccc(NC(=O)[C@H](Cc3ccccc3Cl)NC(=O)C(F)(F)c3ccccc3)cc2)NC(=O)CC2(CCCC2)CC1=O > 7.00

Could you share which pIC50 value was measured for CN(C)C(=O)N[C@@H](Cc1ccccc1Cl)C(=O)Nc1ccc(C[C@H]2NC(=O)CC3(CCCC3)CC(=O)NCCCCCNC(=O)CNC2=O)cc1 ? > 7.00

Reported pIC50 for O=C1CC2(CCCC2)CC(=O)N[C@H](Cc2ccc(NC(=O)[C@@H](NC(=O)Cc3cccc(O)c3)C3CCCCC3)cc2)C(=O)NCCOCCOCCN1 : what is it? > 7.00

Consider the additional compound presented here.
# query: pIC50 of entry O=C1CNC(=O)[C@@H](Cc2ccc(NC(=O)[C@H](Cc3ccccc3Cl)NCc3ccccc3)cc2)NC(=O)CC2(CCCC2)CC(=O)NCCCCCN1 5.00 to 6.00
